- Test system: ED cells
- Method: ATL cell proliferation assay (WST-8), ED cells
- Format: cell-based, human
- Assay Setup: Homo sapiens; ED cells, 72 h incubation in RPMI-1640, WST-8 assay; read-out: IC50 (inhibition of cell proliferation), ED
// reported pIC50 for each item listed
By convention, pIC50 is the negative base-10 log of a molar concentration.

Chem Smiles: CCCCC/C=C\C/C=C\C/C=C\CCCCC(=O)O
pIC50: 4.21

Next:
Hello, I am looking for reported pIC50 with ED cells for CCCCC/C=C\C/C=C\CCCCCCCC(=O)O . Could you help? 4.00

====

- System: ED cells
- Method: ATL cell proliferation assay (WST-8), ED cells
- Assay type: cell-based, human
- Assay Setup: Homo sapiens, 72 h, read-out: IC50 (inhibition of cell proliferation), ED
Measured Endpoint: IC50 (µM)
Give your result in µM as a bare value.

Quick one: IC50 of CCCC/C=C/C=C/C=C\CCCCCCCC(=O)O ? 8.9

All values here come from paper PMC4844309.
